Molecular target: CCNE1 (Homo sapiens, UniProt P24864+P24941)
Construct: host or cells: HEK293
Assay: CCNE1 HIBIT PQ (protein quantification), degradation
Type: cell-based
Conditions: PQ = Protein Quantification
quantity-kind: log10 DC50 (log10 of the value in nM)
// units: nM (pre-log); metric: DC50; scale: log10

Example molecules with recorded log10 DC50:
1) CC(C)Oc1c(-c2cn[nH]c2)ncn2nc(Nc3ccc(S(=O)(=O)N(C)CCCN4CCC(c5ccc6c(c5)n(C)c(=O)n6C5CCC(=O)NC5=O)CC4)c(F)c3F)nc12 (racemic) [Compound 56]	-0.64
2) CC(C)Oc1c(-c2cn[nH]c2)ncn2nc(Nc3ccc(S(=O)(=O)c4cccc(C[C@H]5C[C@@H](c6ccc7c(c6)CN(C6CCC(=O)NC6=O)C7=O)C5)c4)cc3F)nc12 (stereo partly shown) [Compound 29]	1.27
3) CC(C)Oc1c(-c2cn[nH]c2)ncn2nc(Nc3ccc(S(=O)(=O)c4cccc(CN5CCN(c6ccc7c(N8CCC(=O)NC8=O)nn(C)c7c6)CC5(C)C)c4)cc3F)nc12 [Compound 47]	1.74
4) CC(C)Oc1c(-c2cn[nH]c2)ncn2nc(Nc3ccc(S(=O)(=O)c4cccc(CN5CCN(c6ccc7c(N8CCC(=O)NC8=O)nn(C)c7c6)CC5C(C)C)c4)cc3F)nc12 (single isomer, unassigned) [Compound 107]	1.80

IN: Answer with reported log10 DC50 of CC(C)Oc1c(-c2cn[nH]c2)ncn2nc(Nc3ccc(S(=O)(=O)c4cccc(CN5CCC(c6cccc7c(N8CCC(=O)NC8=O)nn(C)c67)CC5)c4)cc3F)nc12 [Compound 26]
OUT: 0.38

IN: State, in one line, measured log10 DC50 of CC(C)Oc1c(-c2cn[nH]c2)ncn2nc(Nc3ccc(S(=O)(=O)c4cccc(CN5CCN(c6cc7c(cc6F)C(=O)N(C6CCC(=O)NC6=O)C7)CC5)c4)cc3F)nc12 (racemic) [Compound 11]
OUT: 1.16

IN: // Input: CC(C)Oc1c(-c2cn[nH]c2)ncn2nc(Nc3ccc(S(=O)(=O)c4cccc(C(C)N5CCN(c6ccc7c(N8CCC(=O)NC8=O)nn(C)c7c6)CC5)c4)cc3F)nc12 (single isomer, unassigned) [Compound 99] . Output its log10 DC50 only.
OUT: 1.01

IN: For CC(C)Oc1c(-c2cn[nH]c2)ncn2nc(Nc3ccc(S(=O)(=O)c4cccc(N5CCC6C5CN6c5ccc6c(c5)CN(C5CCC(=O)NC5=O)C6=O)c4)cc3F)nc12 (stereo not shown) [Compound 34] , write its log10 DC50.
OUT: 1.15

IN: Identify log10 DC50 associated with the molecule CC(C)Oc1c(-c2cn[nH]c2)ncn2nc(Nc3ccc(S(=O)(=O)c4cccc(C[C@H]5C[C@H](c6ccc7c(c6)CN([C@@H]6CCC(=O)NC6=O)C7=O)C5)c4)cc3F)nc12 (stereo in doubt) [Compound 80]
OUT: 1.31

IN: For the molecule CC(C)Oc1c(-c2cn[nH]c2)ncn2nc(Nc3ccc(S(=O)(=O)c4cccc(CN5CCN(c6ccc7c(N8CCC(=O)NC8=O)nn(C)c7c6)CC5C)c4)cc3F)nc12 (racemic) [Compound 39] , report log10 DC50.
OUT: 1.17

----------
Molecular target: CCNE1 (Homo sapiens, UniProt P24864+P24941)
Construct: host or cells: HEK293
Experiment: CCNE1 HIBIT PQ (protein quantification), degradation
Assay type: cell-based
Settings: Max = Maximum
Readings of CCNE1 HIBIT PQ Max (%) for the listed compounds
Answer in %, number only, no unit symbol.

Please review the entries below; each comes with its answer.
1) CC(C)Oc1c(-c2cn[nH]c2)ncn2nc(Nc3ccc(S(=O)(=O)c4cccc(CN5CCN(c6ccc7c(N8CCC(=O)NC8=O)nn(C)c7c6)C(C(C)C)C5)c4)cc3F)nc12 (racemic)	76
2) CC(C)Oc1c(-c2cn[nH]c2)ncn2nc(Nc3ccc(S(=O)(=O)N4CCC5(CCCN5C5CCN(c6ccc7c(c6)n(C)c(=O)n7C6CCC(=O)NC6=O)CC5)C4)cc3F)nc12 (centres unmarked)	30
3) CC(C)Oc1c(-c2cn[nH]c2)ncn2nc(N[C@H]3CCN(S(=O)(=O)c4cccc(CN5CCN(c6ccc7c(N8CCC(=O)NC8=O)nn(C)c7c6)CC5)c4)C[C@H]3C)nc12	89
4) Cc1cc(Nc2nc3c(OC(C)C)c(-c4cn[nH]c4)ncn3n2)c(F)cc1S(=O)(=O)N(C)CCCN1CCC(c2ccc3c(c2)n(C)c(=O)n3C2CCC(=O)NC2=O)CC1 (racemic)	66

Alright, here's another compound for you.
IN: Provide only the value of recorded CCNE1 HIBIT PQ Max (%) for CC(C)Oc1c(-c2cn[nH]c2)ncn2nc(Nc3ccc(S(=O)(=O)c4cccc(CC5CC(c6ccc7c(c6)n(C)c(=O)n7[C@H]6CCC(=O)NC6=O)C5)c4)cc3F)nc12 (mixture of isomers)
OUT: 26
